experiment: DPPH radical scavenging assay; settings: 30 min in the dark, 517 nm; mean ± SD of three measurements; read-out: IC50 DPPH Free Radical
readout type: pIC50
The quantity pIC50 is defined as the negative base-10 logarithm of the molar concentration.

Data request: Please give the measured pIC50 for this molecule: Cc1ccc(S(=O)(=O)NN=Cc2cc3c(O)c(c2)Cc2cc(C(C)(C)C)cc4c2OCC(=O)NCCNC(=O)COc2c(cc(C(C)(C)C)cc2Cc2cc(C=NNS(=O)(=O)c5ccc(C)cc5)cc(c2O)C4)C3)cc1
Data returned: 4.77

* * *

test system: Tyrosinase from mushroom; assay: Anti-tyrosinase activity (diphenolase, L-DOPA substrate); type: biochemical; details: at 200 µM
Output Yes for Tyrosinase activity % inhibition not less than 20%; output No otherwise.

Data request: Hi, just wondering whether O=c1cc(CO)occ1O [Kojik acid, kojic acid, reference compound] shows Tyrosinase activity % inhibition of 20% or higher.
Data returned: Yes

Data request: Try the compound CC(C)(C)c1cc2c3c(c1)Cc1cc(C=Nc4ccc(S(N)(=O)=O)cc4)cc(c1O)Cc1cc(C(C)(C)C)cc(c1OCC(=O)NCCNC(=O)CO3)Cc1cc(C=Nc3ccc(S(N)(=O)=O)cc3)cc(c1O)C2
Data returned: Yes

Data request: Lookup CC(=O)Nc1ccc(S(=O)(=O)NN=Cc2cc3c(O)c(c2)Cc2cc(C(C)(C)C)cc4c2OCC(=O)NCCNC(=O)COc2c(cc(C(C)(C)C)cc2Cc2cc(C=NNS(=O)(=O)c5ccc(NC(C)=O)cc5)cc(c2O)C4)C3)cc1
Data returned: Yes

Data request: What about this compound? CC(C)(C)c1cc2c3c(c1)Cc1cc(C=Nc4ccc(S(=O)(=O)Nc5nc6ccccc6s5)cc4)cc(c1O)Cc1cc(C(C)(C)C)cc(c1OCC(=O)NCCNC(=O)CO3)Cc1cc(C=Nc3ccc(S(=O)(=O)Nc4nc5ccccc5s4)cc3)cc(c1O)C2
Data returned: No

Continue with the compound presented below.
Data request: Decide: is the reported value of Tyrosinase activity % inhibition for CC(C)(C)c1cc2c3c(c1)Cc1cc(C=Nc4ccc(S(=O)(=O)Nc5ncccn5)cc4)cc(c1O)Cc1cc(C(C)(C)C)cc(c1OCC(=O)NCCNC(=O)CO3)Cc1cc(C=Nc3ccc(S(=O)(=O)Nc4ncccn4)cc3)cc(c1O)C2 equal to or greater than 20%?
Data returned: Yes

* * *

Test system hCA IX (Homo sapiens, UniProt Q16790), pKi listed for each of the molecules.
The value called pKi is obtained by taking minus log10 of the concentration in mol/L.

Data request: What does the record list as pKi for CC(C)(C)c1cc2c3c(c1)Cc1cc(C=Nc4ccc(S(=O)(=O)Nc5ncccn5)cc4)cc(c1O)Cc1cc(C(C)(C)C)cc(c1OCC(=O)NCCNC(=O)CO3)Cc1cc(C=Nc3ccc(S(=O)(=O)Nc4ncccn4)cc3)cc(c1O)C2 ?
Data returned: 4.34

More entries:
Data request: Recorded pKi for Cc1cc(NS(=O)(=O)c2ccc(/N=C/c3cc4c(O)c(c3)Cc3cc(C(C)(C)C)cc5c3OCC(=O)NCCNC(=O)COc3c(cc(C(C)(C)C)cc3Cc3cc(/C=N/c6ccc(S(=O)(=O)Nc7cc(C)on7)cc6)cc(c3O)C5)C4)cc2)no1 , please?
Data returned: 4.17

Data request: // next record CC(C)(C)c1cc2c3c(c1)Cc1cc(C=Nc4ccc(S(N)(=O)=O)cc4)cc(c1O)Cc1cc(C(C)(C)C)cc(c1OCC(=O)NCCNC(=O)CO3)Cc1cc(C=Nc3ccc(S(N)(=O)=O)cc3)cc(c1O)C2
Data returned: 6.82

Data request: How about CC(=O)Nc1ccc(S(=O)(=O)NN=Cc2cc3c(O)c(c2)Cc2cc(C(C)(C)C)cc4c2OCC(=O)NCCNC(=O)COc2c(cc(C(C)(C)C)cc2Cc2cc(C=NNS(=O)(=O)c5ccc(NC(C)=O)cc5)cc(c2O)C4)C3)cc1 ?
Data returned: 4.19

* * *

assay: DPPH radical scavenging assay; conditions: 30 min in the dark, 517 nm; mean ± SD of three measurements; read-out: IC50 DPPH Free Radical
Item-by-item account of IC50
Return type: number; implicit unit µM.

Record excerpt, results attached:
Data request: Name the recorded IC50 for COc1ccc(O)c(C(C)(C)C)c1 [BHA, reference compound] .
Data returned: 7.88

Data request: Param item: Cc1cc(C(C)(C)C)c(O)c(C(C)(C)C)c1 [BHT, reference compound]
Data returned: 58.9

Data request: Next compound: CC(C)(C)c1cc2c3c(c1)Cc1cc(C=Nc4ccc(S(=O)(=O)Nc5nc6ccccc6s5)cc4)cc(c1O)Cc1cc(C(C)(C)C)cc(c1OCC(=O)NCCNC(=O)CO3)Cc1cc(C=Nc3ccc(S(=O)(=O)Nc4nc5ccccc5s4)cc3)cc(c1O)C2 [CX-4]
Data returned: 520

Next up:
Data request: Form field: reported IC50 of CC(=O)Nc1ccc(S(=O)(=O)NN=Cc2cc3c(O)c(c2)Cc2cc(C(C)(C)C)cc4c2OCC(=O)NCCNC(=O)COc2c(cc(C(C)(C)C)cc2Cc2cc(C=NNS(=O)(=O)c5ccc(NC(C)=O)cc5)cc(c2O)C4)C3)cc1 [CX-6]
Data returned: 9.02

* * *

molecular target: UniProt P00915
Sequence (P00915 whole entry): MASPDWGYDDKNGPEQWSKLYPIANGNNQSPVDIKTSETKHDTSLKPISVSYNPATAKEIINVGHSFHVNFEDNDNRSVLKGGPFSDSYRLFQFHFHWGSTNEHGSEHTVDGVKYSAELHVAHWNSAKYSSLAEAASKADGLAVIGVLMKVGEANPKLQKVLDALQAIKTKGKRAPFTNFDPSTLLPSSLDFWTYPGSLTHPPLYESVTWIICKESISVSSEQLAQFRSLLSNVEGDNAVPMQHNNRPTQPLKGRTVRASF
Listed next: entries and their corresponding Ki.

Recorded Ki, per entry:
Data request: For the compound shown here, CC(C)(C)c1cc2c3c(c1)Cc1cc(C=Nc4ccc(S(N)(=O)=O)cc4)cc(c1O)Cc1cc(C(C)(C)C)cc(c1OCC(=O)NCCNC(=O)CO3)Cc1cc(C=Nc3ccc(S(N)(=O)=O)cc3)cc(c1O)C2 , give the reported Ki.
Data returned: 5.55 µM

Data request: What about this compound? Cc1cc(NS(=O)(=O)c2ccc(/N=C/c3cc4c(O)c(c3)Cc3cc(C(C)(C)C)cc5c3OCC(=O)NCCNC(=O)COc3c(cc(C(C)(C)C)cc3Cc3cc(/C=N/c6ccc(S(=O)(=O)Nc7cc(C)on7)cc6)cc(c3O)C5)C4)cc2)no1
Data returned: > 100 µM

Data request: Same question, Cc1ccc(S(=O)(=O)NN=Cc2cc3c(O)c(c2)Cc2cc(C(C)(C)C)cc4c2OCC(=O)NCCNC(=O)COc2c(cc(C(C)(C)C)cc2Cc2cc(C=NNS(=O)(=O)c5ccc(C)cc5)cc(c2O)C4)C3)cc1 this time
Data returned: > 100 µM

Data request: Thanks! And CC(C)(C)c1cc2c3c(c1)Cc1cc(C=Nc4ccc(S(=O)(=O)Nc5ncccn5)cc4)cc(c1O)Cc1cc(C(C)(C)C)cc(c1OCC(=O)NCCNC(=O)CO3)Cc1cc(C=Nc3ccc(S(=O)(=O)Nc4ncccn4)cc3)cc(c1O)C2 ?
Data returned: > 100 µM

Data request: Same question, CC(C)(C)c1cc2c3c(c1)Cc1cc(C=Nc4ccc(S(=O)(=O)Nc5nc6ccccc6s5)cc4)cc(c1O)Cc1cc(C(C)(C)C)cc(c1OCC(=O)NCCNC(=O)CO3)Cc1cc(C=Nc3ccc(S(=O)(=O)Nc4nc5ccccc5s4)cc3)cc(c1O)C2 this time
Data returned: > 100 µM

Note: attention shifts to another entry.
Data request: Need Ki, item CC(=O)Nc1ccc(S(=O)(=O)NN=Cc2cc3c(O)c(c2)Cc2cc(C(C)(C)C)cc4c2OCC(=O)NCCNC(=O)COc2c(cc(C(C)(C)C)cc2Cc2cc(C=NNS(=O)(=O)c5ccc(NC(C)=O)cc5)cc(c2O)C4)C3)cc1
Data returned: > 100 µM

* * *

Below: a set of entries, each annotated with reported pKi.
molecular target: hCA IV (Homo sapiens, UniProt P22748)
Sequence (P22748 19-312): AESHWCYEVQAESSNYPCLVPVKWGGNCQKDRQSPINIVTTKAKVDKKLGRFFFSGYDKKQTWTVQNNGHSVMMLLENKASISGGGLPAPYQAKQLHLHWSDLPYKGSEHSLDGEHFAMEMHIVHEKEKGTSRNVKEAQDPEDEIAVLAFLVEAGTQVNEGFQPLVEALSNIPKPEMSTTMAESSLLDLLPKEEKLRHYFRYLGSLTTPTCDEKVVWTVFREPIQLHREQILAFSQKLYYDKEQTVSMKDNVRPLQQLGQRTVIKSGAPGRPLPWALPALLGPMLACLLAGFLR
pKi: −log10 of the molar value.

Answered examples (3):
Data request: Fill in the blank: the reported pKi of CC(=O)Nc1ccc(S(=O)(=O)NN=Cc2cc3c(O)c(c2)Cc2cc(C(C)(C)C)cc4c2OCC(=O)NCCNC(=O)COc2c(cc(C(C)(C)C)cc2Cc2cc(C=NNS(=O)(=O)c5ccc(NC(C)=O)cc5)cc(c2O)C4)C3)cc1 is ____.
Data returned: < 4.00

Data request: Would you kindly repeat that for Cc1ccc(S(=O)(=O)NN=Cc2cc3c(O)c(c2)Cc2cc(C(C)(C)C)cc4c2OCC(=O)NCCNC(=O)COc2c(cc(C(C)(C)C)cc2Cc2cc(C=NNS(=O)(=O)c5ccc(C)cc5)cc(c2O)C4)C3)cc1 ?
Data returned: < 4.00

Data request: Cool, now Cc1cc(NS(=O)(=O)c2ccc(/N=C/c3cc4c(O)c(c3)Cc3cc(C(C)(C)C)cc5c3OCC(=O)NCCNC(=O)COc3c(cc(C(C)(C)C)cc3Cc3cc(/C=N/c6ccc(S(=O)(=O)Nc7cc(C)on7)cc6)cc(c3O)C5)C4)cc2)no1
Data returned: < 4.00

Next:
Data request: Sample CC(C)(C)c1cc2c3c(c1)Cc1cc(C=Nc4ccc(S(=O)(=O)Nc5nc6ccccc6s5)cc4)cc(c1O)Cc1cc(C(C)(C)C)cc(c1OCC(=O)NCCNC(=O)CO3)Cc1cc(C=Nc3ccc(S(=O)(=O)Nc4nc5ccccc5s4)cc3)cc(c1O)C2 — what was its pKi?
Data returned: < 4.00

Data request: What would you report for CC(C)(C)c1cc2c3c(c1)Cc1cc(C=Nc4ccc(S(N)(=O)=O)cc4)cc(c1O)Cc1cc(C(C)(C)C)cc(c1OCC(=O)NCCNC(=O)CO3)Cc1cc(C=Nc3ccc(S(N)(=O)=O)cc3)cc(c1O)C2 ?
Data returned: 5.36

Data request: Follow-up item: CC(C)(C)c1cc2c3c(c1)Cc1cc(C=Nc4ccc(S(=O)(=O)Nc5ncccn5)cc4)cc(c1O)Cc1cc(C(C)(C)C)cc(c1OCC(=O)NCCNC(=O)CO3)Cc1cc(C=Nc3ccc(S(=O)(=O)Nc4ncccn4)cc3)cc(c1O)C2
Data returned: < 4.00

FYI, the data here is from paper PMC7269057.
